Where do these numbers come from? They come from the supplement of paper PMC3334620.

Biological target: Yer064c (UniProt P40041)
Sequence: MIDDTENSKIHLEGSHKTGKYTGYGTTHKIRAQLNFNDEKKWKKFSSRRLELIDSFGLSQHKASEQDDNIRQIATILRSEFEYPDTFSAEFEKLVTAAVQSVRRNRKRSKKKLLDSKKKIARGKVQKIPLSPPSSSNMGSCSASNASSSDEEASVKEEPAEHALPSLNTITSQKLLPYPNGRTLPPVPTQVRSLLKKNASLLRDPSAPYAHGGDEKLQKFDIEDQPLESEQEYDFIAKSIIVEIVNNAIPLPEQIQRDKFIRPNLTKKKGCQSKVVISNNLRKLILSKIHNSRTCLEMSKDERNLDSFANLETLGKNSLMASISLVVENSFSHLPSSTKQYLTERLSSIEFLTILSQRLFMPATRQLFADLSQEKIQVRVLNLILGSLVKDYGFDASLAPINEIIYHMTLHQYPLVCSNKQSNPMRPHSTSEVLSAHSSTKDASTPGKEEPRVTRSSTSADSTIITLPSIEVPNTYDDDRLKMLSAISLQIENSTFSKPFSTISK
Experiment: PBM E-score (8-mer binding enrichment) (E-score (-0.5 to 0.5)); higher = stronger / more preferred TF binding
Conditions: protein concentration: 200 nM; construct: GST-full length
Whole data set: some 33,000 sequences, median “E-score (-0.5 to 0.5)” near -0.036, cut for the highest 2% near 0.37. The full list was thinned out, with the highest values kept by preference.
Assign PBM E-score to each entry below.
Answers are plain numbers.

In the examples that follow, each entry is paired with its recorded PBM E-score.
Sequence Record | Tested On | PBM E-score
CAGTCTCC | Yer064c (UniProt P40041) | 0.211
AGTCACAG | Yer064c (UniProt P40041) | 0.467
GACTCGCA | Yer064c (UniProt P40041) | 0.414
AATCGCTC | Yer064c (UniProt P40041) | 0.211
CAGGCATG | Yer064c (UniProt P40041) | -0.133
AGTCTTTC | Yer064c (UniProt P40041) | 0.372
AAAAACCC | Yer064c (UniProt P40041) | -0.204
CTGGCATA | Yer064c (UniProt P40041) | -0.0817
AGATTCGC | Yer064c (UniProt P40041) | -0.0217
AACTCCTC | Yer064c (UniProt P40041) | -0.169

Please state PBM E-score for every sequence in the list that follows.
1. ACTCACAT
2. AACGTGGC
3. AAAGAGTA
4. TACTCGCA

[0.35, -0.0783, 0.0885, 0.211]

----------
Molecular target: Yer064c (UniProt P40041)
Sequence: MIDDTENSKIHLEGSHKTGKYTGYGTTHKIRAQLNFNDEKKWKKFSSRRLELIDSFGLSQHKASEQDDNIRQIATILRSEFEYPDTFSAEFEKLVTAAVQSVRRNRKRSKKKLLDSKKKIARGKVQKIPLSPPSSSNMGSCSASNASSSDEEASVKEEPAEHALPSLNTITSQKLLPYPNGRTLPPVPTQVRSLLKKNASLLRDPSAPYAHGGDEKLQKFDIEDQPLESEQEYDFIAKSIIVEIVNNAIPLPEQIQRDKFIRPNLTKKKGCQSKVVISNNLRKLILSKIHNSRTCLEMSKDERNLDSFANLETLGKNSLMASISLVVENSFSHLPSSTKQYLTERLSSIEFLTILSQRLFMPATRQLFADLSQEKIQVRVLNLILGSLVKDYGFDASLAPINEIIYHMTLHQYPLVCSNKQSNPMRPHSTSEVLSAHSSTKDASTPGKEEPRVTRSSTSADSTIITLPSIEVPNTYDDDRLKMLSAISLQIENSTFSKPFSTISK
Test: PBM E-score (8-mer binding enrichment) (E-score (-0.5 to 0.5)); higher = stronger / more preferred TF binding
Settings: protein concentration: 200 nM; construct: GST-full length
Over roughly 33,000 sequences, “E-score (-0.5 to 0.5)” has its median near -0.036; the highest 2% begin near 0.37. What follows is part of a selection rich in the highest values, with near analogues and random picks from the rest.
Assign PBM E-score to each entry below.
One number for each entry.

Sequence Record | PBM E-score
CATCATAC | 0.215
AATCATAC | 0.451
CGTCGCTA | -0.0862
CCCTTGAA | -0.0587
CGTCGCAG | -0.031

Please state PBM E-score for every sequence in the list that follows.
1. GAGAGGGC
2. AGTCGCCC
3. AGTCGCTA
4. AGACGAAT

1: -0.203; 2: 0.403; 3: 0.371; 4: 0.00164
